Data origin: patent US8987287B2

# assayed-system: κ opioid receptor (Homo sapiens (Human))
# measurement-notes: κ-opioid receptor [35S]GTPγS functional assay, U-2 OS cells
# Format: biochemical
# study-conditions: relative to U69,593; U-2 OS cells
reported-metric: Emax

Use these answered entries as a reference point.
compound: CCN1C(=O)N[C@]2(CC[C@@]3(O)[C@H]4Cc5ccc(O)cc5[C@@]3(CCN4CC)C2)C1=O
result: 102%

compound: O=C1N[C@]2(CC[C@@]3(O)[C@H]4Cc5ccc(O)cc5[C@@]3(CCN4CC3CC3)C2)C(=O)N1Cc1ccc(O)cc1
result: 104%

compound: CC(C)CCN1CC[C@]23C[C@]4(CC[C@@]2(O)[C@H]1Cc1ccc(O)cc13)NC(=O)NC4=O
result: 88%

Now consider a different compound.
Look at this compound and give its reported Emax. O=C1NC(=O)[C@@]2(CC[C@@]3(O)[C@H]4Cc5ccc(O)cc5[C@@]3(CCN4CC3CC3)C2)N1CC1CC1
92.3%

---

# assayed-system: κ opioid receptor (Homo sapiens (Human), UniProt P41145)
# measurement-notes: κ-opioid receptor radioligand ([3H]-U69,593) dose-displacement binding assay
# study-conditions: binding affinity, bound given in μM, read-out: Opioid Receptor Ki κ
reported-metric: Ki

compound: COc1ccc2c(c1)[C@]13CCN[C@H](C2)[C@]1(O)CC[C@@]1(C3)NC(=O)NC1=O
Ki: > 20 µM

What Ki value was documented for this compound, COc1ccc2c(c1)[C@]13CCN(Cc4ccccc4)[C@H](C2)[C@]1(O)CC[C@@]1(C3)NC(=O)NC1=O ?
> 20 µM

---

// values below are reported pEC50
# assayed-system: UniProt:P41145
# measurement-notes: κ-opioid receptor [35S]GTPγS functional assay, U-2 OS cells
# Type: biochemical
# reply with the number alone; pEC50 is -log10 of concentration in mol/L

Solved entries (count: 4):
compound: O=C1NC(=O)[C@@]2(CC[C@@]3(O)[C@H]4Cc5ccc(O)cc5[C@@]3(CCN4CC(F)(F)F)C2)N1
pEC50: 6.28
--
compound: O=C1NC(=O)[C@@]2(CC[C@@]3(O)[C@H]4Cc5ccc(O)cc5[C@@]3(CCN4CC(F)F)C2)N1
pEC50: 6.36
--
compound: O=C1NC(=O)[C@@]2(CC[C@@]3(O)[C@H]4Cc5ccc(O)cc5[C@@]3(CCN4CCCC(F)(F)F)C2)N1
pEC50: 5.65
--
compound: CCN1C(=O)N[C@]2(CC[C@@]3(O)[C@H]4Cc5ccc(O)cc5[C@@]3(CCN4CC3CC3)C2)C1=O
pEC50: 8.36

Any idea what pEC50 came out for O=C1NC(=O)[C@@]2(CC[C@@]3(O)[C@H]4Cc5ccc(O)cc5[C@@]3(CCN4CCCc3ccccc3)C2)N1 on UniProt:P41145?
5.60

---

# assayed-system: κ opioid receptor (Homo sapiens (Human), UniProt P41145)
# measurement-notes: κ-opioid receptor [35S]GTPγS functional assay, U-2 OS cells
# Assay type: biochemical
reported-metric: log10 of EC50 (log10 of the value in nM)
Kindly note that the scale is log10 and the underlying EC50 is in nM.

Would you please look over these solved cases?
compound: CN1CC[C@]23C[C@@]4(CC[C@@]2(O)[C@H]1Cc1ccc(O)cc13)C(=O)NC(=O)N4C
log10 of EC50: 2.51
--
compound: CCN1C(=O)NC(=O)[C@@]12CC[C@@]1(O)[C@H]3Cc4ccc(O)cc4[C@@]1(CCN3C)C2
log10 of EC50: 2.94
--
compound: N#CCN1C(=O)NC(=O)[C@@]12CC[C@@]1(O)[C@H]3Cc4ccc(O)cc4[C@@]1(CCN3CC1CC1)C2
log10 of EC50: 0.85
--
compound: C=C(C)CCN1CC[C@]23C[C@]4(CC[C@@]2(O)[C@H]1Cc1ccc(O)cc13)NC(=O)NC4=O
log10 of EC50: 1.53

For O=C1NC(=O)[C@@]2(CC[C@@]3(O)[C@H]4Cc5ccc(O)cc5[C@@]3(CCN4CCc3ccccc3)C2)N1 , what is its reported log10 of EC50?
2.43

Moving on to the next compound: CCN1C(=O)N(CC)[C@]2(CC[C@@]3(O)[C@H]4Cc5ccc(O)cc5[C@@]3(CCN4C)C2)C1=O
2.85
